# tested_target: Angiopoietin-1 receptor (Homo sapiens) (UniProt Q02763);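 also: reported value is the mean TIE2 inhibition from the GSK PKIS dataset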
# Sequence (Q02763 whole entry): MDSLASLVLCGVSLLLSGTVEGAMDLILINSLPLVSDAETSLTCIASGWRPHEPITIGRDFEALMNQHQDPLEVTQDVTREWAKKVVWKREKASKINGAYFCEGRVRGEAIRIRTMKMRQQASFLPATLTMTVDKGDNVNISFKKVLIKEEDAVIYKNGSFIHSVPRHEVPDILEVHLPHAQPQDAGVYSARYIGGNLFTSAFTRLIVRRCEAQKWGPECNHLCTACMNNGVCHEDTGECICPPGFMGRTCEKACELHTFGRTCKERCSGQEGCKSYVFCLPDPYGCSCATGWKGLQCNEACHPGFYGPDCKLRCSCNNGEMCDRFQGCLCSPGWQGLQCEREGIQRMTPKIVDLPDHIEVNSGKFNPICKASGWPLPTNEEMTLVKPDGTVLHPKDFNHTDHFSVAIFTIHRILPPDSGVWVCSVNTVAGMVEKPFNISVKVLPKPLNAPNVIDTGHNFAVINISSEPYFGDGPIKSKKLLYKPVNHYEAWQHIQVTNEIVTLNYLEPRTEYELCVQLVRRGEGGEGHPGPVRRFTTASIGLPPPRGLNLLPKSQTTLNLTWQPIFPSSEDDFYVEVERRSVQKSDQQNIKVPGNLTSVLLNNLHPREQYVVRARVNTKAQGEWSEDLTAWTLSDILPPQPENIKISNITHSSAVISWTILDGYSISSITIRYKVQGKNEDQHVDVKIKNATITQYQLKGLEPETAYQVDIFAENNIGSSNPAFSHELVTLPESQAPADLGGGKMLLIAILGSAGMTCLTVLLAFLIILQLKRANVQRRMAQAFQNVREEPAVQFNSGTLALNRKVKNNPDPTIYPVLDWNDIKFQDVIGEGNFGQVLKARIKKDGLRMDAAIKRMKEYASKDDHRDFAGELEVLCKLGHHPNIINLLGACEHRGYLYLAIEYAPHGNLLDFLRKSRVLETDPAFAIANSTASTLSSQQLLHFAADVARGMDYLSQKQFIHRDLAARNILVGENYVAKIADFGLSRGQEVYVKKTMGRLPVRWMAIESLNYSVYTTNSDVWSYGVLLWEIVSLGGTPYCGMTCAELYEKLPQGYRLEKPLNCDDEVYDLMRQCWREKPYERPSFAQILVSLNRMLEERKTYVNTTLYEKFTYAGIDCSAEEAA
# run_parameters: at 1 µM
// reported inhibition per item
Reply with the number and its unit after it.

# example entries with known answers
COc1ccc(-c2coc3ncnc(N)c23)cc1
7.38%
NS(=O)(=O)c1ccc(N/N=C2\C(=O)Nc3ccc(C(=O)NCCc4c[nH]cn4)cc32)cc1
3.16%
Cc1cccc(-c2n[nH]cc2-c2ccc3ncccc3n2)n1
3.33%
Nc1ncnc2occ(-c3ccc(NC(=O)Nc4cccc(C(F)(F)F)c4)cc3)c12
74.4%
CC1=C(C(=O)Nc2ccc3[nH]ncc3c2)C(c2ccc(F)cc2)NC(=O)N1 (stereo unspecified)
3.1%

Next compound, please.
Bench note: what inhibition did `CCN1CCC(CC(=O)Nc2n[nH]c3nc(-c4cccs4)c(Br)cc23)CC1` show? 11.1%

###

// reported inhibition per item
# tested_target: Serine/threonine-protein kinase Sgk3 (Homo sapiens) (UniProt Q96BR1);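 also: reported percentages are averaged inhibition values against SGK3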
# Sequence (Q96BR1 whole entry): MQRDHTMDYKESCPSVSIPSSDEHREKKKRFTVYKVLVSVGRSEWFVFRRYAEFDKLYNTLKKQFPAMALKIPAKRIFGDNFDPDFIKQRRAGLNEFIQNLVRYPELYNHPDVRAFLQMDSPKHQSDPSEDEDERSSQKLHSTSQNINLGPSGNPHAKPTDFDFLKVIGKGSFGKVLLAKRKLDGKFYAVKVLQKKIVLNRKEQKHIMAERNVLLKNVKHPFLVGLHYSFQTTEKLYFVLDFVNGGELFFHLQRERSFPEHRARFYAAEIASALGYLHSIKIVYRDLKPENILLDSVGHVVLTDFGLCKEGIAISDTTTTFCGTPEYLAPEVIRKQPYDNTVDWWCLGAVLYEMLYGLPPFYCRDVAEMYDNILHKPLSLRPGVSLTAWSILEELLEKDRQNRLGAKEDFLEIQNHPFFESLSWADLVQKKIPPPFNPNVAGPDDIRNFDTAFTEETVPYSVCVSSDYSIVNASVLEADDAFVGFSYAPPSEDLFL
# run_parameters: at 0.1 µM
Please give a number only; it is taken to be in %.

# example entries with known answers
O=C1NC(=O)C(c2ccc(Cl)cc2)=C1Nc1ccc(Cl)c(C(=O)O)c1
-1.08
CNC(=O)c1cncc(/C=C/c2c(Cl)cccc2Cl)c1
1.43
COc1ccc2cc(-c3c(-c4ccncc4)nc(-c4ccc([S+](C)[O-])cc4)n3C)ccc2c1 (stereo not given)
2.63

Bench note: what inhibition did `O=C(Nc1n[nH]c2nc(-c3ccco3)c(Br)cc12)C1CC1` show? 2.77

Bench note: what inhibition did `COc1ccc(COc2ccc(Cc3cnc(N)nc3N)cc2OC)cc1` show? 2.57

Bench note: what inhibition did `CS(=O)(=O)Nc1ccc(N/C=C2\C(=O)Nc3ccccc32)cc1` show? -3.12

Bench note: what inhibition did `O=C1NC(=O)C(c2ccccc2Cl)=C1Nc1cccc(O)c1` show? 4.44

Bench note: what inhibition did `CN(C)c1cc2c(Nc3ccc4nc(Cc5ccccc5)[nH]c4c3)ncnc2cn1` show? 3.71

Bench note: what inhibition did `CN1CCC(C(=O)Nc2n[nH]c3nnc(-c4ccccc4)cc23)CC1` show? 2.89

Bench note: what inhibition did `Nc1ncnc2occ(-c3ccc(NC(=O)Nc4cc(C(F)(F)F)cc(C(F)(F)F)c4)cc3)c12` show? 0.27

###

// reported inhibition per item
# tested_target: Serine/threonine-protein kinase 3 (Homo sapiens);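 also: reported value is the mean percent inhibition of MST2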
# Sequence (whole entry): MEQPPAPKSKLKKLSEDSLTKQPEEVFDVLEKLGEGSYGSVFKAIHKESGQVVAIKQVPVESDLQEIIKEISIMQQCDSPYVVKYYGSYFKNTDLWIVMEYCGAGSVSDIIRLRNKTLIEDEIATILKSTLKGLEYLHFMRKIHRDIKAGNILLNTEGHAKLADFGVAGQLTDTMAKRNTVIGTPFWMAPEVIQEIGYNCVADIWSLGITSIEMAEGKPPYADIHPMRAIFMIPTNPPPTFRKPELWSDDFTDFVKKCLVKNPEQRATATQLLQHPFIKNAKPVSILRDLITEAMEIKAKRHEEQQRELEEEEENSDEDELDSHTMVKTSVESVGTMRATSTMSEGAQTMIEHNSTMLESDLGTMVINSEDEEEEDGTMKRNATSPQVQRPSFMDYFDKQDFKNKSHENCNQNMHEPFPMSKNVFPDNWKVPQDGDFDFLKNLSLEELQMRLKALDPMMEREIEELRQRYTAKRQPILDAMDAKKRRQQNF
# run_parameters: at 0.1 µM
Please give a number only; it is taken to be in %.

# example entries with known answers
Cn1cc(C=C2C(=O)Nc3cccnc32)c2ccccc21
10.5
CS(=O)(=O)Nc1ccc(N/C=C2\C(=O)Nc3ccccc32)cc1
-0.42
Cc1ccc(C(=O)NC2CCCCC2)cc1-c1ccc(C(=O)NCC2CC2)cc1
6.92

# query: inhibition | item `COC(=O)Nc1nc2cc(Oc3ccc(NC(=O)Nc4cccc(C(=O)O)c4)cc3)ccc2[nH]1` | system: Serine/threonine-protein kinase 3 (Homo sapiens) 7.55

# query: inhibition | item `CN(C)c1cc2c(Nc3ccc4nc(Cc5ccccc5)[nH]c4c3)ncnc2cn1` | system: Serine/threonine-protein kinase 3 (Homo sapiens) 4.95

# query: inhibition | item `[O-][S+]1CCN(Cc2ccc(-c3ccc4ncnc(Nc5ccc(OCc6ccccc6)c(F)c5)c4c3)o2)CC1` | system: Serine/threonine-protein kinase 3 (Homo sapiens) 2.82
